Collected from the literature: Ki of various compounds toward 4-aminobutyrate aminotransferase, mitochondrial (Sus scrofa, UniProt P80147).

Find Ki for N[C@@H]1C=C[C@H](C(=O)O)C1 on 4-aminobutyrate aminotransferase, mitochondrial (Sus scrofa, UniProt P80147) and write it down.
Sequence (P80147 whole entry): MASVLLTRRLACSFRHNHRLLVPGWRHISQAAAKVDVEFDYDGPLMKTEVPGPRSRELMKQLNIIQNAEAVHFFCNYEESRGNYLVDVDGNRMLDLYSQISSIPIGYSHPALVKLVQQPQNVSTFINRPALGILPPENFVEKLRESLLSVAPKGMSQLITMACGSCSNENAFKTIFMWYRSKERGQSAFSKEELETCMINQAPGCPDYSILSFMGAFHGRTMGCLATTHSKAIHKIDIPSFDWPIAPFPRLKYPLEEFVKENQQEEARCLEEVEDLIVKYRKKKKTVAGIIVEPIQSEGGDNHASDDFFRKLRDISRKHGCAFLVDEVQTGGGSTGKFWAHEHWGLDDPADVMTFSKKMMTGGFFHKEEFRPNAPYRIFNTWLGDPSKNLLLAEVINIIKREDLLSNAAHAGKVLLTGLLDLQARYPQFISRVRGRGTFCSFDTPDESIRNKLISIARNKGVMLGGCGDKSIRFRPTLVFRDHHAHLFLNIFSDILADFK
40 µM

Find Ki for NC1C=CC(C(=O)O)C1 (racemic) on 4-aminobutyrate aminotransferase, mitochondrial (Sus scrofa, UniProt P80147) and write it down.
600 µM

Find Ki for C[C@](N)(CCl)C(=O)O on 4-aminobutyrate aminotransferase, mitochondrial (Sus scrofa, UniProt P80147) and write it down.
6500 µM

Find Ki for C[C@](N)(COP(=O)(O)O)C(=O)O on 4-aminobutyrate aminotransferase, mitochondrial (Sus scrofa, UniProt P80147) and write it down.
5700 µM

Find Ki for NCc1ccc(C(=O)O)o1 on 4-aminobutyrate aminotransferase, mitochondrial (Sus scrofa, UniProt P80147) and write it down.
1400 µM

Find Ki for NCc1coc(C(=O)O)c1 on 4-aminobutyrate aminotransferase, mitochondrial (Sus scrofa, UniProt P80147) and write it down.
1640 µM

Find Ki for N[C@@H]1C=C[C@@H](C(=O)O)C1 on 4-aminobutyrate aminotransferase, mitochondrial (Sus scrofa, UniProt P80147) and write it down.
38000 µM

Find Ki for NCc1c[nH]c(C(=O)O)c1 on 4-aminobutyrate aminotransferase, mitochondrial (Sus scrofa, UniProt P80147) and write it down.
1590 µM

Find Ki for NCc1csc(C(=O)O)c1 on 4-aminobutyrate aminotransferase, mitochondrial (Sus scrofa, UniProt P80147) and write it down.
1350 µM

Find Ki for NC/C=C(\CO)C(=O)O on 4-aminobutyrate aminotransferase, mitochondrial (Sus scrofa, UniProt P80147) and write it down.
5 µM

Find Ki for N[C@@H]1CC=C(C(=O)O)C1 on 4-aminobutyrate aminotransferase, mitochondrial (Sus scrofa, UniProt P80147) and write it down.
1200 µM
